Each item that follows carries a reported pKd.
# assay target: CXCL3_HUMAN (human, UniProt P19876 35-107)
# Sequence (P19876 35-107): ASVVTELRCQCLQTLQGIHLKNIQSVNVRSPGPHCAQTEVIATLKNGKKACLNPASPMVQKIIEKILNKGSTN
# test description: BLI
# log scale: pKd equals minus log10 of the concentration in mol/L

Worked examples, 6 binders total:
                                     binder  quantity_kind  numeric_value
0  P1142_AMBCA (other) KPQILQRTDHSTDSDWDPQMCPETCNPSKNISCSSECLCVTLGGGDETGTCFNMSGVDWLGHAQASDGHNDG            pKd           8.25
1  P1124_IXORI (other) DSKGTSDSQDSTKSIKVDFCETNCTKTDGGWTGCTGDCICVSVGDSIEGRCMDFG            pKd           8.05
2  P1104_IXORI (other) ESKEASASQGPGKSFKVEFCETNCTENNGVWSGCTGDCICVSVGDSKEGRCMDLGDKVIDTPVAQG            pKd           7.36
3  EVA3_RHISA (protein) LVSTIESRTSGDGADNFDVVSCNKNCTSGQNECPEGCFCGLLGQNKKGHCYKIIGNLSGEPPVVRR            pKd           8.13
4  P1077_IXORI (other) GSKQLIGPQSSTNSIKAEFCDTNCTAGTNGIWNGCSGDCFCTHVGNSTEGRCMKITGFDEYPTSEAEE            pKd           7.80
5  P1156_IXORI (other) ADDDNELFTVQYCGMNCTKDEGGTWTGCTGKKEGCKCYHESGKNYGLCLSTEYTDFSQYGNPSDSEIEAAKPKRSDTLSH            pKd           7.15

What value of pKd has been recorded for this entry: P942_IXORI (other) NQLSGPQSSANSNEAVFCDTNCTQGTDEAWSGCRGDCFCVYVGNSTEGRCMMLSGDFDYSTPGAED
8.30

Consider next the binder P458_IXORI (other) GSKQPGAAGSSSDSVEAVFCPTNCTKGTNGAWSGCSDDCICVHVGENTEGSCMKFSGDYDYPTPEA in the same way.
8.11

Thanks! And P1078_IXORI (other) GSKGSSAQQSSHDSIKAEFCETNCTMKTGGKWTQCHGGCFCVHVGNETVGRCIKLDGDYDYPSSKHEE ?
7.36

# iterate: P1126_AMBCA (other) KPQILQRTDKSTDSEWDPQTCPETCIPSKNITCSDGCVCVKLGEEEEGTCFNMTGVDWLGSPSDD
7.88

Field entry: P1162_IXORI (other) LNDEELFTVDYCGTNCTQQPNGSWTTCPGNCSCYHEDGKTDGFCLSTEYTDFTQFPNLTSEEMDAATPRPE
7.22

Again, but for P1090_IXORI (other) GSKELSGPESSENSIEAAFCDTNCTEGTDGVWSGCSAGCFCVHVGNSTVGRCMTFNGVDGG
8.12

Now the same for P1127_IXORI (other) AGKDDEHFSVDYCGMNCTQQEDGSWTACSGRNGECRCYHESGKRSGLCLSTTYIDFSEYGNLSDSDIAAASPRLSMKESH
7.16

Subsequent entry: P1086_IXORI (other) GSKGQRASQVSETSITAEFCDTSCTQGTDKTWSGCSGDCFCVHVGNDTEGRCMRWDGDYPSAEEEE
7.82

Another binder to check: P675_IXORI (other) GSNQLSGPQSSANSNDAVFCDTNCTQGTDGAWSGCRGDCFCVHVGNSTEGRCIELIGDFDYSTPGAED
7.45

Another binder to check: P1080_IXORI (other) SAGSKGSSAPQSSGDSVVAEFCDTNCTMKKDGKWTECNGDCFCVHVGNETVGRCMRLDGDYDYTSSKTTRRNKKTRNGLCRLDRNRTTVDYPERNTREP
6.91

Repeat for the following binder: P1100_IXORI (other) GSKGSSASQSSDNSVVAKFCDTNCTINEGGKWTECKGGCFCVHVGNETVGRCMKLDGDYDYPSPKPEE
7.25

Follow-up entry: P1128_IXORI (other) KDDEHFSVDYCGMNCTQQEDGSWTACSGRNEECRCYHESGKKNGLCLSTTYIDFSQYGNPSDSDIAAASPRP
7.41

Also check P1074_IXORI (other) GSKESSAHQSSDDSIKAEFCDAKCTMKTDGKWTQCHGGCFCVHVGNETEGRCMRLDGDYDYPSTQPEE
7.62
